Provenance of the data: patent US20260167721A1

# subject-of-test: T1, recombinant human CD3 epsilon/delta heterodimer (human, UniProt P07766 23-126; P04234 22-105)
# T1 construct: Recombinant protein in solution (200-50 nM) in the Octet assay; also called hCD3 E/D; human CD3E/D
# experimental-protocol: Octet BLI, mAb on FAB2G sensor, hCD3 E/D 200-50 nM; R^2 0.98;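 note: antibodies purified from hybridoma supernatants, measured by Octet binding to recombinant human CD3 protein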
readout-label: kon (M⁻¹ s⁻¹)
Form entry: value (M⁻¹ s⁻¹) — number only.

Reference set (4 entries):
ABL-CD3-21 (antibody, V domains shown, Chimeric hybridoma mAb: human V, CH1, upper hinge; mouse middle hinge, CH2, CH3) VH: EVQLVESGGGLVKPGGSLRLSCAASGFTFSSYSMNWVRQAPGKGLEWVSSISRSSSYIYYADSVKGRFTLSRDNAKNSLYLQMNSLRGEDTAIYYCGRDGKGAIFLDYWGQGTLVTVSS VL: SYELTQPPSVSVSPGQTARITCSGDALPKKYAYWYQQKSGQAPVLVIYEDSKRPSGIPERFSGSSSGTMATLTISGAQVEDEADYYCYSTHSSGNHRVFGGGTKLTVL | 378000
ABL-CD3-62 (antibody, V domains shown, Chimeric hybridoma mAb: human V, CH1, upper hinge; mouse middle hinge, CH2, CH3) VH: EVQLVESGGGLVKPGGSLRLSCAASGFTFSSYSMNWVRQAPGKGLEWVSSISRSSGYIFYADSVKGRFTISRDNAKNSLYLQMNSLRAEDTAVYYCVRERVGAGFDYWGQGTLVTVSS VL: NFMLTQPHSVSESPGKTVAISCTRSSGSIASNYVQWYQQRPGSSPTAVIYEDNQRPSGVPDRFSGSIDSSSNSAFLTISGLKTEDEADYYCQSYDSSNRVFGGGTKLTVL | 225000
ABL-CD3-34 (antibody, V domains shown, Chimeric hybridoma mAb: human V, CH1, upper hinge; mouse middle hinge, CH2, CH3) VH: EVHLVESGGGLVKPGGSLRLSCAASGFTFSRYSMNWVRQAPGKGLEWVSSISRSSSYIYYADSVKGRFTISRDNAKNSLYLQMNSLRAEDTAVYYCAREPRTLGMDYWGQGILVTVSS VL: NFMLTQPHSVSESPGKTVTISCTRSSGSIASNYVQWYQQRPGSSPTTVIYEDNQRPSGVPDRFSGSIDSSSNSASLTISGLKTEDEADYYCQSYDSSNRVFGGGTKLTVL | 234000
ABL-CD3-44 (antibody, V domains shown, Chimeric hybridoma mAb: human V, CH1, upper hinge; mouse middle hinge, CH2, CH3) VH: EVQLVESGGGLVQPGGSLRLSCAASGFTFSTYWMSWVRQAPGKGLEWVANIKQDGSEKYYVDSVKGRFTISRDNAKNSLYLQMNSLRAEDTAVYYCATGSFDYWGQGTLVTVSS VL: QPVLTQPSSHSASSGASVRLTCMLSSGFSVGDFWIRWYQQKPGNPPRYLLFYHSDSNKGQGSGVPSRFSGSNDASANAGILRISGLQPEDEADYYCGTWHSNSKTWVFGGGTKLTVL | 517

Here is the next item to consider.
Lab book: kon of ABL-CD3-51 (antibody, V domains shown, Chimeric hybridoma mAb: human V, CH1, upper hinge; mouse middle hinge, CH2, CH3) VH: EVQLVESGGGLVKPGGSLRLSCAASGFTFSSYSMNWVRQAPGKGLEWVSSISRSSSYIYYADSVKGRFTISRDNAKNSLYLQMNSLRAEDTAVYYCARERWELLYFDYWGQGTLVTVSS VL: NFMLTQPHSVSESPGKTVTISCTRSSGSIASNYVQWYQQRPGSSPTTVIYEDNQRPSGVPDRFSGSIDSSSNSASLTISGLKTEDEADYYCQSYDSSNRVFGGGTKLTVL noted as 244000
